All values here come from patent US20140178394A1.

Each record here notes measured CEM.T2 % Binding.
- target: T1, HLA-A*0201 on the CEM.T2 cell line (T2) (human)
- T1 construct: whole, on cells
- assay_text: T2 cell HLA-A*0201 stabilization, 100 µM peptide, flow cytometry; % of HBV positive control
Kindly provide the numeric value in % only, without the unit symbol.

INSERT INTO assay_data (binder, endpoint_result) VALUES
  ('HILHVSFLA (Synthetic nonapeptide of human nectin4; the number is the start position in nectin4 (the range counts on nectin4)) [Nectin4 peptide 238 (HILHVSFLA)]', 37),
  ('LVSASVVVV (Synthetic nonapeptide of human nectin4; the range counts on nectin4) [Nectin4 peptide 345 (LVSASVVVV)]', 11),
  ('VVVGVIAAL (Synthetic nonapeptide of human nectin4; the range counts on nectin4) [Nectin4 peptide 351 (VVVGVIAAL)]', 82);

input: What measured CEM.T2 % Binding goes with FLAEASVRG (Synthetic nonapeptide of human nectin4; the range counts on nectin4) [Nectin4 peptide 244 (FLAEASVRG)] ?
output: 12

input: Item FQARLRLRV (Synthetic nonapeptide of human nectin4; the range counts on nectin4) [Nectin4 peptide 137 (FQARLRLRV)] has what recorded CEM.T2 % Binding?
output: 30

input: State the recorded CEM.T2 % Binding for this entry: GVIAALLFC (Synthetic nonapeptide of human nectin4; the range counts on nectin4) [Nectin4 peptide 354 (GVIAALLFC)]
output: 10

input: Tell me the measured CEM.T2 % Binding of SASVVVVGV (Synthetic nonapeptide of human nectin4; the range counts on nectin4) [Nectin4 peptide 347 (SASVVVVGV)] , please.
output: 40

input: Recorded CEM.T2 % Binding of ALLHSKYGL (Synthetic nonapeptide of human nectin4; the range counts on nectin4; also called Pep N° 80) [Nectin4 peptide 80 (ALLHSKYGL)] , please.
output: 53

input: // CEM.T2 % Binding lookup, key: VIAALLFCL (Synthetic nonapeptide of human nectin4; the range counts on nectin4) [Nectin4 peptide 355 (VIAALLFCL)]
output: 18

input: Look up CEM.T2 % Binding: AMLKCLSEG (Synthetic nonapeptide of human nectin4; the range counts on nectin4) [Nectin4 peptide 266 (AMLKCLSEG)]
output: 31

input: Query: CEM.T2 % Binding; subject: ILHVSFLAE (Synthetic nonapeptide of human nectin4; the range counts on nectin4) [Nectin4 peptide 239 (ILHVSFLAE)]
output: 10

input: Which CEM.T2 % Binding is reported for this binder? LLFCLLVVV (Synthetic nonapeptide of human nectin4; the range counts on nectin4) [Nectin4 peptide 359 (LLFCLLVVV)]
output: 7

input: Give the measured CEM.T2 % Binding of GTSDVVTVV (Synthetic nonapeptide of human nectin4; the range counts on nectin4) [Nectin4 peptide 35 (GTSDVVTVV)] .
output: 60
